experiment: Determination of fluorescence quantum yield of tricarbocyanine dyes; assay type: physicochemical; conditions: 2 μM, in water
Measured Fluorescence quantum yield (%) In water, listed per entry.
State the answer as a number, implicitly in %.

Previously resolved entries follow.
CC1(C)C(/C=C/C2=C(c3ccccc3)C(=C/C=C3/N(CCCCS(=O)(=O)O)c4ccc(S(=O)(=O)[O-])cc4C3(C)C)/CCC2)=[N+](CCCCS(=O)(=O)O)c2ccc(S(=O)(=O)O)cc21 [Compound 5-41] ... 10
CC(/C=C/C=C1/N(CCS(=O)(=O)O)c2ccc(S(=O)(=O)[O-])cc2C1(C)C)=C\C=C\C1=[N+](CCS(=O)(=O)O)c2ccc(S(=O)(=O)O)cc2C1(C)C [Compound 5-36] ... 12
CC1(C)C(/C=C/C=C(/C=C/C=C2/N(CCCCS(=O)(=O)O)c3ccc(S(=O)(=O)[O-])cc3C2(C)C)CCS(=O)(=O)O)=[N+](CCCCS(=O)(=O)O)c2ccc(S(=O)(=O)O)cc21 [Compound 5-29] ... 8.2

Let us move to another entry and its Fluorescence quantum yield (%) In water.
Would you mind telling me what Fluorescence quantum yield (%) In water value was observed for CC(/C=C/C=C1/N(CCS(=O)(=O)O)c2ccc(S(=O)(=O)[O-])cc2C1(C)C)=C\C=C\C1=[N+](CCS(=O)(=O)O)c2ccc(S(=O)(=O)O)cc2C1(C)C [SF64] ?
11
